ASSAY_INFO: Drug repurposing screens with cells derived from glioblastoma tumor samples (AID 1345199)
APPLIED_CONDITIONS: GBM patient neurospheres viability, ATP luminescence, 48 h; at 45.9 µM (top of the series); tumour line D
Results filed as inconclusive are left out.
Values of activity, negative = cell killing strictly less than -10% map to yes, and values of at least -10% map to no.

| COMPOUND | CAT |
| --- | --- |
| Nc1ccc([As](=O)(O)O)cc1 | no |
| NC(=O)c1cc([N+](=O)[O-])cc([N+](=O)[O-])c1 | yes |
| O=C(O)/C=C\C(=O)O | no |
| CC(C)(C)NCC(O)c1cc(Cl)c(N)c(C(F)(F)F)c1 (stereo not drawn) | no |
| CC(C)c1cccc(C(C)C)c1O | no |
| O=C(N/N=C/c1ccc([N+](=O)[O-])o1)c1cc([N+](=O)[O-])cc([N+](=O)[O-])c1O | yes |
| O=C(O)CCCc1ccc(N(CCCl)CCCl)cc1 | yes |
| O=C1Nc2ccc(Cl)cc2C(c2ccccc2Cl)=NC1O (stereo not drawn) | no |
